Biological target: T1, human LAG-3 (human, UniProt P18627 23-450, limits assumed)
T1 construct: Selections used human LAG-3-Fc, human LAG-3-6His, a 30 aa LAG-3 peptide and/or cells with cynomolgus LAG-3; also called CD223
T1 sequence (looked up): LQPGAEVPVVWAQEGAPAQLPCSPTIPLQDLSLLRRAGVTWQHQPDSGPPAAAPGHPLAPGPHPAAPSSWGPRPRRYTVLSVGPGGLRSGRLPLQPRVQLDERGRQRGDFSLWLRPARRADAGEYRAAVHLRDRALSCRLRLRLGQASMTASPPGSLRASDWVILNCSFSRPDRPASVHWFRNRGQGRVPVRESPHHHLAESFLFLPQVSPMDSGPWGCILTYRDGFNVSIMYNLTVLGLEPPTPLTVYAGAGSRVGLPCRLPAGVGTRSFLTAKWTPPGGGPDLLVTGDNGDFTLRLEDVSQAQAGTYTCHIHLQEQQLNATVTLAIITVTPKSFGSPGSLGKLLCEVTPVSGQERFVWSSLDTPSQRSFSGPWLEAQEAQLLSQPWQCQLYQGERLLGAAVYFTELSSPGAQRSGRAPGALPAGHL
Assay: Fab phage display selection; periplasmic extracts screened by ELISA or flow cytometry
READOUT TYPE: binding result

[
  {
    "BINDER": "P14B07 Fab (Fab, V domains shown, Murine Fab, periplasmic extract) VH: QVQLQQPGAELVKPGASVKLSCTASGFNIKDNYIHWVKQRPEQGLEWIGSIDPANGNTKYDPKFQGKASITADTSSNTAYLQLSSLTSEDTTVYYCASYFYRYDVGGFDYWGQGTTLTVS VL: ENVLTQSPALMAASPGEKVTITCSVSSSISSSNLHWYQQKSGTSPKLWIYGTSNLASGVPVRFSGSGSGTSYSLTISSMEAEDAATYYCQQWSSYPFTFGSGTKLEIK",
    "ASSAY RESULT": "binds"
  },
  {
    "BINDER": "P01A12 Fab (Fab, V domains shown, Murine Fab, periplasmic extract) VH: EVQLQQSGAELVKPGASVKLSCTASGFNIKDTYMYWVKQRPEQGLDWIGRIDPANGNTKFDPKFQGKATITADTSSNTAYLQLSSLTSEDTAVYYCSTYYYRYDVGGFDYWGQGTTLTVS VL: DIVLTQSPALMAASPGEKVTITCSVSSSISSSNLHWYQQKSGTSPKLWIYGTSNLASGVPVRFSGSGSGTSYSLTISSMEAEDAATYYCQQWSSYPFTFGSGTKLEIK",
    "ASSAY RESULT": "binds"
  },
  {
    "BINDER": "P13B02 Fab (Fab, V domains shown, Murine Fab, periplasmic extract) VH: QVQMKQSGAELVKPGASVKLSCTASGFNIKDTYIHWVKQRPEQGLEWIGEIDPANDNTKYDPKFQGKATITADTSSNTAYLQLSSLTSEDTAVYYCATYYYRYDVGGFDYWGQGTTLTVS VL: EILLTQSPALMAASPGEKVTITCSVSSSISSSNLHWFQQKSGTSPKLWIYGTSNLASGVPVRFSGSGSGTSYSLTISSMEAEDAATYYCQQWSSYPFTFGSGTKLEIK",
    "ASSAY RESULT": "binds"
  }
]
